From: PubChem BioAssay AID485349

- experimentNotes: qHTS Assay for Identifying a Potential Treatment of Ataxia-Telangiectasia; note: nearly all actives have a fitted effect of over 45% in size; note: potency is the fitted concentration of half-maximal effect
- assaySetup: F2112 A-T fibroblasts, KAP-1 phosphorylation AlphaLISA, neocarzinostatin DNA damage 30 min before lysis; series mostly up to 57.5 µM
The campaign covered roughly 320,000 compounds. About 620 (0.19%) were called active. The sample as a whole holds a higher share of actives than the screen did.
assayReadout: Potency

>  <compound>
Cc1ccccc1C1CC(c2cccs2)=NN1S(C)(=O)=O (centres undefined)

>  <observedResult>
inactive

$$$$
>  <compound>
Fc1ccc(N2N=C(c3cccs3)CC2c2ccco2)c(F)c1 (centres undefined)

>  <observedResult>
28.2 µM (active)

$$$$
>  <compound>
C[C@H](NS(=O)(=O)c1ccc(Cl)cc1)C(=O)OCC(=O)N1CCOCC1

>  <observedResult>
inactive

$$$$
>  <compound>
CC1CCCN(C(=O)c2ccc3c(c2)C(=O)N(CCC2=CCCCC2)C3=O)C1 (centres undefined)

>  <observedResult>
inactive

$$$$
>  <compound>
COc1ccc(NC(=O)Cn2cc(C(=O)c3ccncc3)c(=O)c3cc(C)ccc32)cc1Cl

>  <observedResult>
28.2 µM (active)

$$$$
>  <compound>
CCOC(=O)C1=CN(Cc2ccc(Br)cc2)S(=O)(=O)NC1C (centres undefined)

>  <observedResult>
inactive

$$$$
>  <compound>
O=C(c1ccccc1)N1N=C(c2ccccc2O)CC1c1ccc(Br)cc1 (centres undefined)

>  <observedResult>
17.8 µM (active)

$$$$
>  <compound>
O=S(=O)(NC1CCN(S(=O)(=O)c2ccc3c(c2)OCCO3)CC1)c1c(F)cccc1F

>  <observedResult>
inactive

$$$$
>  <compound>
COC(=O)c1ccc(C2C(Oc3ccccc3C)C(=O)N2CCc2ccc(OC)c(OC)c2)cc1 (centres undefined)

>  <observedResult>
inactive

$$$$
>  <compound>
O=C1OCCN1C(=O)[C@H]1[C@H](c2ccc(F)cc2)C(c2ccccc2)=NN1c1ccc(Br)cc1

>  <observedResult>
inactive

$$$$
>  <compound>
COCCCNC(=O)Cn1c(=O)n(Cc2ccccc2Cl)c(=O)c2cc(OC)c(OC)cc21

>  <observedResult>
inactive

$$$$
>  <compound>
COc1ccc(NC(=O)CN2CCN(S(=O)(=O)c3ccc(F)cc3)CC2)cc1Cl

>  <observedResult>
inactive

$$$$
>  <compound>
CCCCNc1c(-c2ccc(OC)c(Sc3ccc(OC)cc3)c2)nc2ccc(Cl)cn12

>  <observedResult>
inactive

$$$$
>  <compound>
O=P(O)(CN1CCCCC1)CN1CCCCC1

>  <observedResult>
inactive

$$$$
>  <compound>
CC[C@]12c3[nH]c4cc(CCC(=O)N(C)C)ccc4c3CCN1C(=O)[C@@H](CC(=O)NCCCN(C)C)C[C@@H]2C(=O)N1CCN(C(=O)c2ccco2)CC1

>  <observedResult>
inactive

$$$$
>  <compound>
COc1ccc(NC(=O)CN(C)C(=O)CC2CCCCC2)cc1

>  <observedResult>
inactive

$$$$
>  <compound>
CS/C(=C\[N+](=O)[O-])Nc1ccc(C)cc1

>  <observedResult>
inactive

$$$$
>  <compound>
CC[C@]12c3[nH]c4cc(CCC(=O)N(C)C)ccc4c3CCN1C(=O)[C@@H](CC(=O)NCc1ccco1)C[C@@H]2C(=O)N1CCN(C(=O)c2ccco2)CC1

>  <observedResult>
inactive

$$$$
>  <compound>
c1ccc(-n2nc3ccccc3n2)cc1

>  <observedResult>
inactive

$$$$
>  <compound>
CCC(=O)Nc1ccc2nn(-c3ccc(F)cc3)nc2c1

>  <observedResult>
inactive

$$$$
>  <compound>
O=C(CNCc1cccs1)Nc1cc(S(=O)(=O)N2CCCC2)ccc1Cl

>  <observedResult>
3.16 µM (active)

$$$$
>  <compound>
CNC(=S)N1N=C(c2ccccc2)CC1c1ccc(Br)cc1 (centres undefined)

>  <observedResult>
inactive

$$$$
>  <compound>
CCc1ccc(NC(=O)Nc2ccncc2)cc1

>  <observedResult>
inactive

$$$$
>  <compound>
CC(Sc1nn(-c2ccc(Cl)cc2)c(=S)s1)C(=O)NCC1CCCO1 (centres undefined)

>  <observedResult>
inactive

$$$$
>  <compound>
CCn1ccnc1CN(C)Cc1nc(-c2ccc3c(c2)OCO3)no1

>  <observedResult>
inactive

$$$$
>  <compound>
CCC(=O)Nc1ccc(-c2ccc(N3CCCCC3)nn2)cc1

>  <observedResult>
inactive

$$$$
>  <compound>
O=C(NCC1CCCO1)c1ccc(S(=O)(=O)Nc2ccc(F)cc2)cc1 (centres undefined)

>  <observedResult>
inactive

$$$$
>  <compound>
COc1ccc(C2=NN(C(C)=O)C(c3ccccc3)C2)cc1 (centres undefined)

>  <observedResult>
inactive

$$$$
>  <compound>
Nc1ccc2nn(-c3ccc(Cl)cc3)nc2c1

>  <observedResult>
17.8 µM (active)

$$$$
>  <compound>
COCCCNC(=O)CN1CCN(Cc2ccccc2Cl)C1=O

>  <observedResult>
39.8 µM (active)

$$$$
>  <compound>
CCCCNC(=O)OC(C)CNC(=O)OC (centres undefined)

>  <observedResult>
inactive

$$$$
>  <compound>
COc1ccc(C2CC(c3cccs3)=NN2C(=O)CSc2nncs2)cc1OC (centres undefined)

>  <observedResult>
inactive

$$$$
>  <compound>
CCCN=C1N(C)C[C@@H]2[C@@H]3C(=O)N(Cc4ccccc4)C(=O)[C@@H]3[C@](C)(C(=O)OC)N12

>  <observedResult>
inactive

$$$$
>  <compound>
COc1ccc(S(=O)(=O)c2c[nH]c(=S)[nH]c2=O)cc1Cl

>  <observedResult>
inactive

$$$$
